- System: Klebsiella pneumoniae
- TEST: Antibacterial activity against wild type Klebsiella pneumoniae ATCC 35657 by CLSI M100-S17 protocol based method
- Assay type: functional
Binary call on MIC with cut-off 2 µg/mL: strictly below means fulfilled, and equality or higher means not fulfilled.

[[record]]
structure_smiles = "CC(C)NCc1cc2cc3c(cc2n1C)OCCc1c-3[nH]c(=O)c(C(=O)O)c1O"
discrete_label = "fulfilled"

[[record]]
structure_smiles = "CCc1c(-c2ccc(N(C)C)cc2)[nH]c(=O)c(C(=O)O)c1O"
discrete_label = "not fulfilled"

[[record]]
structure_smiles = "CNCc1cc2cc3c(cc2n1C)NCCc1c-3[nH]c(=O)c(C(=O)O)c1O"
discrete_label = "not fulfilled"

[[record]]
structure_smiles = "CCc1c(-c2ccc3c(c2)cc(CN2CCC2)n3C)[nH]c(=O)c(C(=O)O)c1O"
discrete_label = "fulfilled"

[[record]]
structure_smiles = "CC(C)c1c(-c2ccc3c(c2)cc(CN(C)C)n3C)[nH]c(=O)c(C(=O)O)c1O"
discrete_label = "not fulfilled"

[[record]]
structure_smiles = "CCc1c(-c2ccc3c(c2)cc(CNC)n3C)[nH]c(=O)c(C(=O)O)c1O"
discrete_label = "fulfilled"

[[record]]
structure_smiles = "CCc1c(-c2ccc3c(c2)cc(CN2CCCC2)n3C)[nH]c(=O)c(C(=O)O)c1O"
discrete_label = "fulfilled"

[[record]]
structure_smiles = "CCc1c(-c2ccc3c(ccn3C)c2)[nH]c(=O)c(C(=O)O)c1O"
discrete_label = "not fulfilled"

[[record]]
structure_smiles = "COCCNCc1cc2cc3c(cc2n1C)CCCc1c-3[nH]c(=O)c(C(=O)O)c1O"
discrete_label = "fulfilled"

[[record]]
structure_smiles = "CCc1c(-c2ccc3c(c2)cc(CNC(C)(C)C)n3C)[nH]c(=O)c(C(=O)O)c1O"
discrete_label = "fulfilled"


====

- System: Klebsiella pneumoniae
- TEST: Antibacterial activity against wild type Klebsiella pneumoniae ATCC 35657 by CLSI M100-S17 protocol based method
- Type: functional
Reported MIC values for the following compounds.
PARAMETER: MIC (µg/mL)

[[record]]
structure_smiles = "CN(C)Cc1cc2cc3c(cc2n1C)SCCc1c-3[nH]c(=O)c(C(=O)O)c1O"
parameter = "MIC"
value_observed = 2

[[record]]
structure_smiles = "CN(C)CCNCc1cc2cc3c(cc2n1C)CCCc1c-3[nH]c(=O)c(C(=O)O)c1O"
parameter = "MIC"
value_observed = 2

[[record]]
structure_smiles = "CC(C)NCc1cc2cc3c(cc2n1C)SCCc1c-3[nH]c(=O)c(C(=O)O)c1O"
parameter = "MIC"
value_observed = 2

